test system: ATP; assay: switch fluorescence ratio, 500 uM ATP over buffer (Cy3 cluster intensity, sum of 5 cycles each) (fold (ratio)); higher = stronger signal-on switching upon ATP binding; sequences stand for … in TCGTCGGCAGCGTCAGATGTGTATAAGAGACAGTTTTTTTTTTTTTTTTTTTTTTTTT…TC; conditions: aptamer strand: ATP DNA aptamer (quencher-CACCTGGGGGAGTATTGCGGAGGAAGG + anchor), 100 nM annealed; ATP concentration: 500 uM;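 further: ATP exposure 15 min at 22 °C before imaging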
measured_property: switch fluorescence ratio
Numbers only.

// each listed sequence needs a value for switch fluorescence ratio
1. GGTGGGGTCG
2. GAACGGTATT
3. GGGGGATTAG
4. ACTCAAAACG
5. GAAGGGTTAC
6. TGTAGGGTTC
7. TTCGGCGCCA
8. TTCAGGCACG

Solution:
1. 0.991
2. 1.06
3. 0.992
4. 1.11
5. 1.15
6. 1.12
7. 1.03
8. 0.986

// each listed sequence needs a value for switch fluorescence ratio
1. GGTGTGCAAG
2. GCGGGAAAGG
3. AAAGTTTATG
4. CAAAGCTATT
5. GTGATATAGG

Solution:
1. 0.947
2. 0.978
3. 1.01
4. 1.01
5. 1.03

// each listed sequence needs a value for switch fluorescence ratio
1. TTGGCCGCAT
2. CCGTACGGGG

Solution:
1: 1.24; 2: 1.03

// each listed sequence needs a value for switch fluorescence ratio
1. ACTTAGTGCC
2. AGACAAGGGC
3. ACATGCTCCC

Solution:
1: 1.09; 2: 1.06; 3: 1.73

// each listed sequence needs a value for switch fluorescence ratio
1. GATCGCTCGG
2. TGTTTTGATC

Solution:
1: 1.01; 2: 0.977

====

test system: ATP; experiment: switch fluorescence ratio, 500 uM ATP over buffer (Cy3 cluster intensity, sum of 5 cycles each) (fold (ratio)); higher = stronger signal-on switching upon ATP binding; sequences stand for … in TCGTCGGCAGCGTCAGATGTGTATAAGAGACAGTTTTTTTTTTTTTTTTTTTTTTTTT…TC; details: aptamer strand: ATP DNA aptamer (quencher-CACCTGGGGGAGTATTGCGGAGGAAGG + anchor), 100 nM annealed; ATP concentration: 500 uM;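 further: ATP exposure 15 min at 22 °C before imaging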
Tag: 1 if measured switch fluorescence ratio is not below 1, 0 if it is.

- sequence_string: "TGGGTTAGGG"
  class_name: 1
- sequence_string: "TGCCGAAGGT"
  class_name: 1
- sequence_string: "ATCAGAGCTG"
  class_name: 0

Exercise: Check the entry AAGCGGGGAC : does switch fluorescence ratio equal or exceed 1?
Solution: 1

Exercise: Check the entry GCGTTTATGT : does switch fluorescence ratio equal or exceed 1?
Solution: 0

Exercise: Check the entry TTTTACGAGT : does switch fluorescence ratio equal or exceed 1?
Solution: 1

====

test system: ATP; experiment: switch fluorescence ratio, 500 uM ATP over buffer (Cy3 cluster intensity, sum of 5 cycles each) (fold (ratio)); higher = stronger signal-on switching upon ATP binding; sequences stand for … in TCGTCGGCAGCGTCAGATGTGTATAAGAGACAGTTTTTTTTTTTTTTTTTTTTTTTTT…TC; conditions: aptamer strand: ATP DNA aptamer (quencher-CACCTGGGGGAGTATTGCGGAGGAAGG + anchor), 100 nM annealed; ATP concentration: 500 uM;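 further: ATP exposure 15 min at 22 °C before imaging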
Could you please report measured switch fluorescence ratio for the items listed next?
Give bare numbers.

// each listed sequence needs a value for switch fluorescence ratio
1. TTGGGGAGGA
2. CAATAGCACG

Solution:
1. 0.998
2. 1.03

// each listed sequence needs a value for switch fluorescence ratio
1. TATTAGAATC
2. TGAAATCCGA
3. TCTGGGAGAA

Solution:
1. 0.994
2. 1
3. 0.992

// each listed sequence needs a value for switch fluorescence ratio
1. GTGGGATTAT
2. AGGAGTACTT
3. GCGATACTCG
4. TGGGTTGTGG
5. TCGGACTCGT
6. CAAATCCTAT

Solution:
[1, 1.02, 3.56, 1.01, 1.03, 1.01]

// each listed sequence needs a value for switch fluorescence ratio
1. ATGGAGGGGG
2. AAAATTGTTT
3. CGTGACCTTT

Solution:
1. 1.02
2. 1.01
3. 1.02

====

Could you please report measured switch fluorescence ratio for the items listed next?
test system: ATP; assay: switch fluorescence ratio, 500 uM ATP over buffer (Cy3 cluster intensity, sum of 5 cycles each) (fold (ratio)); higher = stronger signal-on switching upon ATP binding; sequences stand for … in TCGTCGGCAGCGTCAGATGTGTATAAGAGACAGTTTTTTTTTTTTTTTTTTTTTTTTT…TC; conditions: aptamer strand: ATP DNA aptamer (quencher-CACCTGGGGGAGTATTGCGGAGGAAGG + anchor), 100 nM annealed; ATP concentration: 500 uM;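 further: ATP exposure 15 min at 22 °C before imaging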

Consider the following illustrative entries.
- sequence_string: "TCCTAGTTGT"
  switch fluorescence ratio: 0.98
- sequence_string: "TTGCAATTGG"
  switch fluorescence ratio: 2.56
- sequence_string: "TCCTTGTAAG"
  switch fluorescence ratio: 1.01
- sequence_string: "TTGCTGTTAG"
  switch fluorescence ratio: 0.995
- sequence_string: "ATGGTGTGCG"
  switch fluorescence ratio: 1.01

// each listed sequence needs a value for switch fluorescence ratio
1. ATGGAAAGAA
2. CGATCAATAT
3. TTCGTGTGGC

Solution:
1. 0.974
2. 2.38
3. 0.932

// each listed sequence needs a value for switch fluorescence ratio
1. CTGTATGTCA
2. ATTAAGGCTA
3. CGTCTTGCCC
4. GCCCGTCCTG
5. CAAGGGGGCC
6. TCCGTGTGGG
7. AATGGTTGGG

Solution:
0.99
0.983
0.985
1.04
1.14
1.04
0.999

// each listed sequence needs a value for switch fluorescence ratio
1. GCCTCAAGTT
2. TTTCCTCTCG
3. AATAGAGGTT
4. GATAGAAAGA
5. TAACGGGGGA

Solution:
[1.03, 1.54, 0.965, 0.964, 1.01]

====

Could you please report measured switch fluorescence ratio for the items listed next?
system: ATP; assay: switch fluorescence ratio, 500 uM ATP over buffer (Cy3 cluster intensity, sum of 5 cycles each) (fold (ratio)); higher = stronger signal-on switching upon ATP binding; sequences stand for … in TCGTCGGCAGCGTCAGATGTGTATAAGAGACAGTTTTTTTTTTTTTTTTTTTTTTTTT…TC; settings: aptamer strand: ATP DNA aptamer (quencher-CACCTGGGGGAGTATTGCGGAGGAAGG + anchor), 100 nM annealed; ATP concentration: 500 uM;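 further: ATP exposure 15 min at 22 °C before imaging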
One number for each entry.

Consider the following illustrative entries.
- sequence_string: "AGCCTTTACA"
  measured_value: 0.994
- sequence_string: "TCCCGGGTTA"
  measured_value: 1.01
- sequence_string: "AAAGAACACT"
  measured_value: 1.06
- sequence_string: "TGTGGTGCGA"
  measured_value: 0.995
- sequence_string: "CGGATGGCGA"
  measured_value: 1.03
- sequence_string: "ATGATCCCGC"
  measured_value: 1.2
- sequence_string: "AAGTATACTT"
  measured_value: 0.986
- sequence_string: "GGTCCTTTGA"
  measured_value: 1

// each listed sequence needs a value for switch fluorescence ratio
1. AACACGGGTA
2. TAGGGTTGGG

Solution:
1. 1.02
2. 1

// each listed sequence needs a value for switch fluorescence ratio
1. AGTTGTTTGT
2. CCGGACACGA
3. GGGTACCGAA

Solution:
1. 0.966
2. 1.39
3. 0.981

// each listed sequence needs a value for switch fluorescence ratio
1. TCAATACGTT
2. AGGGAGGGTG
3. CGTGACTCTA
4. GAATATGTGG
5. TTTAATGTCC
6. TTGACCTGGG
7. GTAATAATGG

Solution:
1.09
1.02
1.03
1
0.976
1.1
0.988

// each listed sequence needs a value for switch fluorescence ratio
1. CTTTTTGAGG
2. TTCAATCATG

Solution:
1. 0.983
2. 0.988

====

test system: ATP; assay: switch fluorescence ratio, 500 uM ATP over buffer (Cy3 cluster intensity, sum of 5 cycles each) (fold (ratio)); higher = stronger signal-on switching upon ATP binding; sequences stand for … in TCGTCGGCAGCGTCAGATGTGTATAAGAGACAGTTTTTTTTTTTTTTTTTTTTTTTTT…TC; conditions: aptamer strand: ATP DNA aptamer (quencher-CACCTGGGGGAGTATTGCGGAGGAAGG + anchor), 100 nM annealed; ATP concentration: 500 uM;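 further: ATP exposure 15 min at 22 °C before imaging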
measured_property: switch fluorescence ratio
Give bare numbers.

// each listed sequence needs a value for switch fluorescence ratio
1. TTATACGTTG
2. CTTTTTTTTC
3. AATTGGAGGA
4. TTTAGCTTAT

Solution:
1: 1.02; 2: 1.03; 3: 0.996; 4: 0.98
